test: Preliminary evaluation of pharmacokinetics in Beagle dogs; assay type: in vivo; conditions: beagle, dog, plasma, iv, 0.5 mg/kg, Beagle dogs; intravenous 0.5 mg/kg; individual animals 1-3; read-out: AUC0-t
OUTCOME MEASURE: AUC0-t
Give the value; after it, write the unit.

Value of measured AUC0-t for the entry `CC(C)Oc1ccc(-c2nc(-c3ccc(CN4CC(C(=O)O)C4)c4ccccc34)no2)cc1C#N.Cl` : 375 ng·h/mL

----------
biological target: S1PR1 (Homo sapiens, UniProt P21453); construct: host or cells: CHO-K1 co-expressing Ga15; experiment: Agonistic activity test on S1P receptors, FLIPR, CHO-K1/Ga15/EDG1 cells; assay type: cell-based; settings: CHO-K1/Ga15/EDG1 cells, FLIPR agonist mode; read-out: S1PR1 EC50
Sequence (P21453 whole entry): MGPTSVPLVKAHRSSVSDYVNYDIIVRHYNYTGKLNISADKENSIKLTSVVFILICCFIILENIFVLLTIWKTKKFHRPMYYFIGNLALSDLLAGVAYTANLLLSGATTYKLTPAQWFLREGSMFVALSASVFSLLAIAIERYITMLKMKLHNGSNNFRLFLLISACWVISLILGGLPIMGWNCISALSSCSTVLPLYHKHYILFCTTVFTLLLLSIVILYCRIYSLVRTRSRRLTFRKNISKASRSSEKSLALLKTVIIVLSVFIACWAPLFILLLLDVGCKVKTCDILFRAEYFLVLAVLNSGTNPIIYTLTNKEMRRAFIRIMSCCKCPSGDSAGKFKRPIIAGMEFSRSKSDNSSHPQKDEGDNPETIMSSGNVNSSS
OUTCOME MEASURE: EC50 (µM)
Give bare numbers, in µM.

As a guide, the following entries are already answered.
CCc1cc(/C(C)=N/OCc2ccc(C3CCCCC3)c(C(F)(F)F)c2)ccc1CN1CC(C(=O)O)C1 [Siponmod, reference compound]; 0.547
CC(C)Oc1ccc(-c2nc(-c3ccc(CN4CC(C(=O)O)C4)c4ccccc34)no2)cc1Br; 1.37
O=C(O)C1CN(Cc2ccc(-c3noc(C4CCCCC4)n3)c3ccccc23)C1; 0.831

I need EC50 for every entry listed below, if you could help.
1. CC(C)(C)Oc1ccc(-c2nc(-c3ccc(CN4CC(C(=O)O)C4)c4ccccc34)no2)cc1
2. O=C(O)C1CN(Cc2ccc(-c3noc(-c4cc5ccccc5[nH]4)n3)c3ccccc23)C1
3. COc1cc(-c2nc(-c3ccc(CN4CC(C(=O)O)C4)c4ccccc34)no2)ccc1OC(C)C
4. CC(C)Oc1ccc(-c2nc(-c3ccc(CN4CC(C(=O)O)C4)c4ccccc34)no2)cc1

[1.23, 1.11, 1.55, 1.67]

----------
assay: Preliminary evaluation of pharmacokinetics in Beagle dogs; format: in vivo; conditions: Beagle, dog, plasma, po, 3 mg/kg, Beagle dogs; intragastric 3 mg/kg; mean
OUTCOME MEASURE: half-life (h)
Answers are plain numbers, in h.

Recorded result, `CC(C)Oc1ccc(-c2nc(-c3ccc(CN4CC(C(=O)O)C4)c4ccccc34)no2)cc1C#N.Cl` , half-life: 1.23

----------
test: Preliminary evaluation of pharmacokinetics in Beagle dogs; format: in vivo; settings: beagle, dog, plasma, iv, 0.5 mg/kg, Beagle dogs; intravenous 0.5 mg/kg; individual animals 1-3; read-out: Vss
OUTCOME MEASURE: Vd (L/kg)
One number for each entry, in L/kg.

Briefly, Vd measured for `CC(C)Oc1ccc(-c2nc(-c3ccc(CN4CC(C(=O)O)C4)c4ccccc34)no2)cc1C#N.Cl` : 1.2

----------
assay: Preliminary evaluation of pharmacokinetics in Beagle dogs; type: in vivo; conditions: beagle, dog, plasma, iv, 0.5 mg/kg, intravenous 0.5 mg/kg; 8 h; mean; read-out: Plasma drug concentration in Beagle dogs
OUTCOME MEASURE: concentration at 8 h (ng/mL)
One number for each entry, in ng/mL.

Per the records, this compound ( `CC(C)Oc1ccc(-c2nc(-c3ccc(CN4CC(C(=O)O)C4)c4ccccc34)no2)cc1C#N.Cl` ) has concentration at 8 h equal to 0.773

----------
test: Preliminary assessment of in vivo pharmacokinetics in rats; conditions: rat, plasma, po, 20 mg/kg, rats; intragastric 20 mg/kg; individual animals 4-6; read-out: MRT0-∞
OUTCOME MEASURE: MRT inf

Entry `CC(C)Oc1ccc(-c2nc(-c3ccc(CN4CC(C(=O)O)C4)c4ccccc34)no2)cc1C#N.Cl` — recorded MRT inf = 2.55 h

Data credit: patent US20240208954A1
